experimental-context: 303.15 K; 10000 kPa; Liquid
This listing pairs compounds with measured mass density.
property-label: mass density (kg/m3)

[
  {
    "compound": "CCCCCCCCCCCCCC[P+](CCCCCC)(CCCCCC)CCCCCC.CS(=O)(=O)[O-] [trihexyltetradecylphosphonium methanesulfonate]",
    "property-label": "mass density",
    "numeric-result": 931.3
  },
  {
    "compound": "CCCCCCCCCCCCCC[P+](CCCCCC)(CCCCCC)CCCCCC.[Cl-] [trihexyl(tetradecyl)phosphonium chloride]",
    "property-label": "mass density",
    "numeric-result": 891.5
  },
  {
    "compound": "CCCCCCCCCCCCCC[P+](CCCCCC)(CCCCCC)CCCCCC.[Br-] [tetradecyltrihexylphosphonium bromide]",
    "property-label": "mass density",
    "numeric-result": 955.9
  },
  {
    "compound": "CCCCCCCCCCCCCC[P+](CCCCCC)(CCCCCC)CCCCCC.O=S(=O)([N-]S(=O)(=O)C(F)(F)F)C(F)(F)F",
    "property-label": "mass density",
    "numeric-result": 1068.8
  },
  {
    "compound": "CCCCCCCCCCCCCC[P+](CCCCCC)(CCCCCC)CCCCCC.N#C[N-]C#N [tetradecyl(trihexyl)phosphonium dicyanamide]",
    "property-label": "mass density",
    "numeric-result": 900.7
  }
]

---

experimental-context: 283.15 K; 35000 kPa; Liquid
For each record, check the reported mass density: if it is below 1000 kg/m3 write yes, else write no.

[
  {
    "compound": "CCCCCCCCCCCCCC[P+](CCCCCC)(CCCCCC)CCCCCC.[Cl-] [trihexyl(tetradecyl)phosphonium chloride]",
    "answer-label": "yes"
  },
  {
    "compound": "CCCCCCCCCCCCCC[P+](CCCCCC)(CCCCCC)CCCCCC.CS(=O)(=O)[O-] [trihexyltetradecylphosphonium methanesulfonate]",
    "answer-label": "yes"
  },
  {
    "compound": "CCCCCCCCCCCCCC[P+](CCCCCC)(CCCCCC)CCCCCC.O=S(=O)([N-]S(=O)(=O)C(F)(F)F)C(F)(F)F",
    "answer-label": "no"
  },
  {
    "compound": "CCCCCCCCCCCCCC[P+](CCCCCC)(CCCCCC)CCCCCC.N#C[N-]C#N [tetradecyl(trihexyl)phosphonium dicyanamide]",
    "answer-label": "yes"
  }
]

---

experimental-context: 323.15 K; 1000 kPa; Liquid
This listing pairs compounds with measured mass density.

[
  {
    "compound": "CCCCCCCCCCCCCC[P+](CCCCCC)(CCCCCC)CCCCCC.N#C[N-]C#N [tetradecyl(trihexyl)phosphonium dicyanamide]",
    "unit-of-measure": "kg/m3",
    "mass density": 884.8
  },
  {
    "compound": "CCCCCCCCCCCCCC[P+](CCCCCC)(CCCCCC)CCCCCC.[Br-] [tetradecyltrihexylphosphonium bromide]",
    "unit-of-measure": "kg/m3",
    "mass density": 938.4
  },
  {
    "compound": "CCCCCCCCCCCCCC[P+](CCCCCC)(CCCCCC)CCCCCC.[Cl-] [trihexyl(tetradecyl)phosphonium chloride]",
    "unit-of-measure": "kg/m3",
    "mass density": 875.3
  },
  {
    "compound": "CCCCCCCCCCCCCC[P+](CCCCCC)(CCCCCC)CCCCCC.O=S(=O)([N-]S(=O)(=O)C(F)(F)F)C(F)(F)F",
    "unit-of-measure": "kg/m3",
    "mass density": 1048.7
  },
  {
    "compound": "CCCCCCCCCCCCCC[P+](CCCCCC)(CCCCCC)CCCCCC.CS(=O)(=O)[O-] [trihexyltetradecylphosphonium methanesulfonate]",
    "unit-of-measure": "kg/m3",
    "mass density": 914
  }
]

Origin of values: the NIST ThermoML archive (doi:10.1021/je101232g)
